Numbers sourced from the supplement of paper PMC12764529.

# EXPERIMENTAL PROTOCOL: folding stability dG unfold from trypsin proteolysis; higher = more stable
MEASURED PROPERTY: folding stability dG unfold (kcal/mol)
Number in kcal/mol, nothing else.

**Query** Specify folding stability dG unfold for SAGGSAGGSAGSPLAQAVIDELKAQGYTVEAVTVTQPPGNAPVVVVTVKKPDGTRVVIDLSAGGSAGGSAGG [r11_780_JUSTAS] and stop.
**Result** 2.74

**Query** Quote folding stability dG unfold reported for SAGGSAGGMNIQILKVDPDNGTITLAIPVDNWIVAISIKIRPDPNNPGMFKLDIDIHWFPADDISAGGSAGG [r6_372_TrROS] please.
**Result** 3.77

**Query** Complete the entry with folding stability dG unfold for SAGGSLSNVTPLGTTPVTLPGSTVTITVYKSDTPGVVYVKIEYPETGVEKVRVLSPEELEKVIEELLSAGGS [r8_469_JUSTAS]
**Result** 2.69

**Query** Give folding stability dG unfold for SAGGSVDVSYDPSTGVVTVTIPSPTGSIGEEEVERVARELKEKYPNVTVSFTPSPGPAVTVTITIPGGSAGG [r13_291_JUSTAS]
**Result** 1.71

**Query** Determine from records and report folding stability dG unfold for SAMPKPALTIEIPLPNGQTVRIDVYYDPETGTYTVNVTRTLPNGEPFTRTYTVESPEEAIKNIEVTDFGSAG [r14_749_TrMRF]
**Result** 3.29

**Query** Supply folding stability dG unfold value. Item: SAGGSAGGSAGEPIRVRIENPPGGQRKITIPTDDLQEKGITPKDIAKKLAREFGWPIEVWSAGGSAGGSAGG [r11_829_TrROS]
**Result** 0.257

**Query** Look up and report measured folding stability dG unfold for this entry: SHWVRKELQEKGYPVKDIEMNPPQGYFYITIQRKRPRKGKPKKKEITIPMDPNMTPDNMLWMARNALDAYSA [r9_184_TrROS]
**Result** 1.05

**Query** Check the records and state folding stability dG unfold for SAGGSAMYYRFEIPRPDGVIEEIWIKMTPEEAKALVEALEADPNVASVKVEAITEEEARKLGIFENSAGGSA [r15_39_JUSTAS]
**Result** 4.17

**Query** State its folding stability dG unfold: SDILERAAEKGVDEIHIMLQPNQIELIKRLQDRGAKIEIHFPPGVPKEYLKKLPGFKVDKVEWMPPDDMPSA [r9_671_TrROS]
**Result** -0.928

**Query** Please supply the value of reported folding stability dG unfold for the item SAGGSAGGSAGGSMKIELPEGAEITEIKKLPNGTYEMTIRVDGKELKIRFVDGKLVIVPSAGGSAGGSAGGS [r4_280_TrROS_Hall]
**Result** 3.62

**Query** Provide only the value of recorded folding stability dG unfold for SAGGSAGGSAGNMEVIEEVEFTFPGLGVKISVSIFKTDGGIVIMIDIEIPMPPEDRKKFKSAGGSAGGSAGG [r17_431_TrROS]
**Result** 0.857

**Query** Look up and report measured folding stability dG unfold for this entry: SAGGSAGGSAGIGSKKPVIKKNIEIEPEIKVEGGKGGSKVKIEYKAKIEIKVYIISKNNPSAGGSAGGSAGG [r17_186_TrMRF]
**Result** 1.28

**Query** Determine its reported folding stability dG unfold: SGMKSVTTPVSLTINTSPEEAEEFIEKLAKERGIEDVTVVKVTTDPATGTLTVEAELHTTIPPLPPPSSVSA [r9_918_JUSTAS]
**Result** 1.07

**Query** Dear colleague, please send me the reported folding stability dG unfold for SAGMKPGETITIVLPDGTKIEIKILENGEVEIVKIEKKEDGTYKITIRVKVNGKEIEKEITLPPGAKILSAG [r5_394_TrROS_Hall] when you can.
**Result** 2.52
